Procedure text: xn = mol fraction of the nth substance listed
Experimental context: 318.15 K; 100.5 kPa; Liquid; x1 = 0.25
Response key: T means viscosity >= 0.9 mPa·s; F means viscosity < 0.9 mPa·s.

Examples from the recorded data:
*Q* Identify whether the reported viscosity of the following compound is 0.9 mPa·s or greater: CCCC(=O)OCCC(C)C [3-methylbutyl butanoate] + CCO
*A* F

*Q* Identify whether the reported viscosity of the following compound is 0.9 mPa·s or greater: CC(=O)OCCC(C)C [3-methylbutyl ethanoate] + CCO
*A* F

*Q* Identify whether the reported viscosity of the following compound is 0.9 mPa·s or greater: CCCCCCCC(=O)OCC [ethyl octanoate] + CCO
*A* F

Further cases:
*Q* Identify whether the reported viscosity of the following compound is 0.9 mPa·s or greater: CCCCCC(=O)OCC [ethyl hexanoate] + CCO
*A* F

*Q* Identify whether the reported viscosity of the following compound is 0.9 mPa·s or greater: CCOC(=O)c1ccccc1 [ethyl benzoate] + CCO
*A* F

*Q* Identify whether the reported viscosity of the following compound is 0.9 mPa·s or greater: CCOC(=O)Cc1ccccc1 [ethyl phenylacetate] + CCO
*A* T

----------
Procedure text: xn = mol fraction of the nth substance listed
Experimental context: 318.15 K; 100.5 kPa; Liquid; x1 = 0.9
Response key: yes (1) means viscosity >= 1 mPa·s; no (0) means viscosity < 1 mPa·s.

Examples from the recorded data:
*Q* Identify whether the reported viscosity of the following molecule is 1 mPa·s or greater: CCOC(=O)Cc1ccccc1 [ethyl phenylacetate] + CCO
*A* yes (1)

*Q* Identify whether the reported viscosity of the following molecule is 1 mPa·s or greater: CCOC(=O)c1ccccc1 [ethyl benzoate] + CCO
*A* yes (1)

*Q* Identify whether the reported viscosity of the following molecule is 1 mPa·s or greater: CC(=O)OCCC(C)C [3-methylbutyl ethanoate] + CCO
*A* no (0)

*Q* Identify whether the reported viscosity of the following molecule is 1 mPa·s or greater: CCCCCC(=O)OCC [ethyl hexanoate] + CCO
*A* no (0)

Please find the next molecule below.
*Q* Identify whether the reported viscosity of the following molecule is 1 mPa·s or greater: CCCC(=O)OCCC(C)C [3-methylbutyl butanoate] + CCO
*A* no (0)

----------
Items are presented alongside their recorded mass density.
Procedure text: xn = mol fraction of the nth substance listed
Experimental context: 308.15 K; 101 kPa; Liquid; x1 = 0.1
// note: answer is a bare numeric in kg/m3

Examples with their reported mass density follow.
*Q* Quick one: mass density of CCCCCC(=O)OCC [ethyl hexanoate] + CCO ?
*A* 795.12

*Q* Quick one: mass density of CCOC(=O)c1ccccc1 [ethyl benzoate] + CCO ?
*A* 833.03

*Q* Quick one: mass density of CCCCCCCC(=O)OCC [ethyl octanoate] + CCO ?
*A* 796.82

Further cases:
*Q* Quick one: mass density of CCCC(=O)OCCC(C)C [3-methylbutyl butanoate] + CCO ?
*A* 794.63

*Q* Quick one: mass density of CCOC(=O)Cc1ccccc1 [ethyl phenylacetate] + CCO ?
*A* 834

----------
Procedure text: xn = mol fraction of the nth substance listed
Experimental context: 298.15 K; 100.5 kPa; Liquid; x1 = 0.4
Response key: MET means viscosity >= 1 mPa·s; NOT MET means viscosity < 1 mPa·s.

*Q* Identify whether the reported viscosity of the following compound is 1 mPa·s or greater: CCOC(=O)Cc1ccccc1 [ethyl phenylacetate] + CCO
*A* MET

*Q* Identify whether the reported viscosity of the following compound is 1 mPa·s or greater: CC(=O)OCCC(C)C [3-methylbutyl ethanoate] + CCO
*A* NOT MET

*Q* Identify whether the reported viscosity of the following compound is 1 mPa·s or greater: CCCCCC(=O)OCC [ethyl hexanoate] + CCO
*A* NOT MET

Further cases:
*Q* Identify whether the reported viscosity of the following compound is 1 mPa·s or greater: CCCCCCCC(=O)OCC [ethyl octanoate] + CCO
*A* MET

*Q* Identify whether the reported viscosity of the following compound is 1 mPa·s or greater: CCOC(=O)c1ccccc1 [ethyl benzoate] + CCO
*A* MET

// provenance: the NIST ThermoML archive (doi:10.1021/je050389b)
